All figures here come from ChEMBL document CHEMBL1201862.

biological target: DNA repair and recombination protein RAD54-like (Homo sapiens, UniProt Q92698); experiment: RAD54 Holliday junction migration blockers – biochemical, fluorescence, cherry-picked samples, dose series, confirmation (AID 651657); assay type: functional
Sequence (Q92698 whole entry): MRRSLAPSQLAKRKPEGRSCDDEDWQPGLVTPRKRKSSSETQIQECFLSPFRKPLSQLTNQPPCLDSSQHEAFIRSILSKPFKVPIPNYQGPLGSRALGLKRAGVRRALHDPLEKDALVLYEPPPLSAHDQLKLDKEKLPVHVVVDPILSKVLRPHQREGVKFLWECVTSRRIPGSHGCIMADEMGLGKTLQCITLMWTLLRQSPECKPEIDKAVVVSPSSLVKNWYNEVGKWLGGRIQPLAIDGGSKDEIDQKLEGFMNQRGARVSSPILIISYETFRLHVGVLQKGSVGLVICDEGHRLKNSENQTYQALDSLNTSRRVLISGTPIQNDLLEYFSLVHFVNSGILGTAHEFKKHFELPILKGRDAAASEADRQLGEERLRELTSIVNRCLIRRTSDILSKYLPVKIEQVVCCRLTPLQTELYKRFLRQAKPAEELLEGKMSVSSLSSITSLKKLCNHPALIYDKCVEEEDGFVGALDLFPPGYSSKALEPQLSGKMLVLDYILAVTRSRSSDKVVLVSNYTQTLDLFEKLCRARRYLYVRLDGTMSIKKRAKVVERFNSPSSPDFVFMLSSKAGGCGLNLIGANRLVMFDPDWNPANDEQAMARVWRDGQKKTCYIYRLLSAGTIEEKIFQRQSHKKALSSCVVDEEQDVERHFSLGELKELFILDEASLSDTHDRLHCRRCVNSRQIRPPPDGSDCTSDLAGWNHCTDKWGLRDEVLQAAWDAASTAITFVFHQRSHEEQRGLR
Active and inactive are the calls of the source.
experimental-endpoint: AC50

Given the entry COc1ccc(CCNc2c3ccccc3nc3ccccc23)cc1OC , report its measured AC50. 7.87 µM (active)

Given the entry COc1ccc(CCn2c(=N)c(C(=O)NCC3CCCO3)cc3c(=O)n4cccc(C)c4nc32)cc1OC (stereo not given) , report its measured AC50. 14.4 µM (active)

Given the entry CCN1C(=O)CCN(C2CCCC2)c2nc(Nc3ccc(C(=O)NC4CCN(C)CC4)cc3OC)ncc21 , report its measured AC50. 39.3 µM (active)

Given the entry O=C(NCCCN1CCOCC1)c1cnn2c(-c3ccccc3)cc(-c3ccccc3)nc12 , report its measured AC50. 27 µM (active)

Given the entry CN(C)CCCNc1nc2cc(-c3ccc(C(=O)N4CCN(C)CC4)cc3)sc2c(=O)n1C , report its measured AC50. 47.7 µM (active)

====

Target: Ubiquitin-conjugating enzyme E2 N (Homo sapiens, UniProt P61088);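 note: Dose-response confirmation in a TR-FRET assay detecting UBC13-driven polyubiquitin chain formation, inhibition measured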
Sequence (P61088 whole entry): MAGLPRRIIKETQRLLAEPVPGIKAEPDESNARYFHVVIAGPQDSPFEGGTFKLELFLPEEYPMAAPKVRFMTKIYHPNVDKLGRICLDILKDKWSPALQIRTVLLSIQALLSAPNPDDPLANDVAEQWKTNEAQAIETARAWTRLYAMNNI
Assay type: functional
Calls of active or inactive are those of the source.
Mark one answer only. Choices: active, inactive

What classification did O=C(CCNC(=O)Cn1ccc2ccccc2c1=O)NCCN1CCN(c2ccccc2F)CC1 end up with in this test? inactive

What classification did COc1cc(N)c(Cl)cc1C(=O)N[C@H]1CCN(CCCOc2ccc(F)cc2)C[C@H]1OC [REL-CISAPRIDE] end up with in this test? inactive

What classification did CCC[C@@H](CN1CCC[C@H]1CN1C(N)=NC[C@H]1CC(C)C)N1C[C@@H]([C@H](C)CC)N(CCCC2CCCC2)C1=N end up with in this test? inactive

What classification did CC[C@@H](C)[C@@H]1CN([C@@H](CN2CCC[C@H]2CN2C(N)=NC[C@H]2C(C)C)C(C)C)C(=N)N1CCc1ccc(Cl)c(Cl)c1 end up with in this test? inactive

What classification did Cc1ccc(NC(=O)C2CCN(c3ncnc4c3nc3n4CCCCC3)CC2)cc1Cl end up with in this test? active

What classification did CC1CC(C)(C)CC2(C1)NC(=O)N(CC(=O)Nc1ccc3[nH]c(O)nc3c1)C2=O (stereo not drawn) end up with in this test? inactive

What classification did CN1Cc2c(N3CCOCC3)nc3sc(C(=O)c4ccc(Br)cc4)c(N)c3c2CC1(C)C end up with in this test? inactive

What classification did COc1ccc2cc3cc(C(=O)Nc4ccccc4N4CCN(C)CC4)oc3nc2c1 end up with in this test? inactive

====

biological target: Heat shock protein HSP 90-alpha (Homo sapiens, UniProt P07900); assay type: functional, organism-based
Calls of active or inactive are those of the source.
experimental-endpoint: AC50

Given the entry Cc1cc(C)c(S(=O)(=O)N2CCC(C(=O)NCc3ccc(Cl)cc3Cl)CC2)c(C)c1 , report its measured AC50. < 195 nM (active)

Given the entry CCN(CC)c1ccc(C(=C2C=CC(=[N+](CC)CC)C=C2)c2ccc(N(CC)CC)cc2)cc1 , report its measured AC50. 570 nM (active)

Given the entry Clc1ccc(CSC(Cn2ccnc2)c2ccc(Cl)cc2Cl)cc1 (configuration not stated) [SULCONAZOLE NITRATE] , report its measured AC50. 294 nM (active)

Given the entry Cc1cc([N+](=O)[O-])c2ccccc2[n+]1[O-] , report its measured AC50. < 195 nM (active)

Given the entry CCCCC(=O)NC(c1ccccc1)c1ccc2cccnc2c1O (configuration not stated) , report its measured AC50. 25500 nM (active)

Given the entry Cc1cc(N=Nc2ccccc2C(=O)O)c(C)c(C)c1O , report its measured AC50. 4360 nM (active)

Given the entry CCOC(=O)C1=C(Cc2ccc(Cl)cc2)C(=O)c2ccccc2C1=O , report its measured AC50. 27200 nM (active)
